- System: HepG2-TP53BP1-CLTA
- Test details: phenotypically active (imaging signature differs from DMSO and reproducible) at any of 0.3-9 uM (binary (1 = active, 0 = inactive)); higher = active
- Details: treatment time: 24 h
Tick one outcome: active, inactive

Before answering, review these 4 worked examples.
- Compound: "O=C(/C=C/c1ccc(OCc2ccccc2)cc1)c1c(O)cc(OCc2ccccc2)cc1OCc1ccccc1 [4,2,4'-Tribenzyloxy-6'-hydroxychalcone]"
  Assigned category: "inactive"
- Compound: "Nc1nnc2[nH]c3ccccc3nc1-2"
  Assigned category: "inactive"
- Compound: "FC(F)OC(F)C(F)(F)F (stereo not given)"
  Assigned category: "inactive"
- Compound: "COc1cc2nccc(Oc3ccc(NC(=O)C4(C(=O)Nc5ccc(F)cc5)CC4)cc3)c2cc1OC"
  Assigned category: "inactive"

Read the next record carefully.
Per the assay record, what outcome was assigned to O=C1NC(=O)[C@@H](c2cn3c4c(cccc24)CCC3)[C@@H]1c1c[nH]c2ccccc12 [tivantinib] ? active

----------
- System: HepG2-CANX-COX4
- Test details: phenotypically active (imaging signature differs from DMSO and reproducible) at any of 0.3-9 uM (binary (1 = active, 0 = inactive)); higher = active
- Details: treatment time: 24 h
Tick one outcome: Y for active, N for inactive

Before answering, review these 2 worked examples.
- Molecule: "O=C1CCc2ccc(OCCCCN3CCN(c4cccc(Cl)c4Cl)CC3)cc2N1"
  Assigned category: "N"
- Molecule: "COc1cc(N2CCN(C)CC2)ccc1Nc1nccc(-c2cn(C)c3cnccc23)n1"
  Assigned category: "Y"

Per the assay record, what outcome was assigned to COc1ccc2c(NC(=O)Nc3cccc(C(F)(F)F)n3)ccnc2c1 ? Y

Then what about the molecule C=C(C)[C@@H]1CC[C@]2(C(=O)O)CC[C@]3(C)[C@H](CC[C@@H]4[C@@]5(C)CC[C@H](O)C(C)(C)[C@@H]5CC[C@]43C)[C@@H]12 ? N

----------
Form field: phenotypically active (one value per entry).
- Test system: A549-GM130-SQSTM1
- Test details: phenotypically active (imaging signature differs from DMSO and reproducible) at any of 0.3-9 uM (binary (1 = active, 0 = inactive)); higher = active
- Details: treatment time: 24 h
Where a name gives a salt, the structure may show the parent alone.
# output: bare number, no unit

Worked cases, answers included:
- Compound: "c1ccc2c(c1)Cc1c(Nc3ccc4c(c3)OCCO4)n[nH]c1-2"
  phenotypically active: 1
- Compound: "O=C(O)[C@]1(O)C[C@H](O)[C@@H](O)[C@@H](O)C1"
  phenotypically active: 0
- Compound: "NCC(=O)Nc1ccc(-n2nc(C(F)(F)F)cc2-c2ccc3c(ccc4ccccc43)c2)cc1"
  phenotypically active: 1
- Compound: "COc1ccc([C@H]2CNC(=O)C2)cc1OC1CCCC1 [(S)-(+)-Rolipram]"
  phenotypically active: 0

// returns reported phenotypically active for input O=C1CCc2ccc(OCCCCN3CCN(c4cccc(Cl)c4Cl)CC3)cc2N1 0

Then what about the compound Cn1c(=O)c2[nH]cnc2n(C)c1=O ? 0

Then what about the compound COc1cc(C[C@H]2C(=O)OC[C@@H]2Cc2ccc(OC)c(OC)c2)ccc1O ? 1

Then what about the compound COc1ccc(CCNCc2ccc(OCc3ccc(Cl)nc3)c(OC)c2)cc1OC [SBE 13 hydrochloride] ? 1

Then what about the compound CC(=O)[C@@]1(O)CC[C@H]2[C@@H]3C[C@H](C)C4=CC(=O)C=C[C@]4(C)[C@@]3(F)[C@@H](O)C[C@@]21C ? 1

Then what about the compound CC(C)COCC(CN(Cc1ccccc1)c1ccccc1)N1CCCC1 (centres undefined) ? 1

Then what about the compound O=C(O)c1ccc(O)c2ncccc12 ? 0

Then what about the compound CO[C@H]1C=CC=C(C)C(=O)NC2=CC(=O)C(NCCN(C)C)=C(C[C@@H](C)C[C@H](OC)[C@H](O)[C@@H](C)C=C(C)[C@@H]1OC(N)=O)C2=O [17-DMAG hydrochloride] ? 1

----------
- Test system: HepG2-GM130-SQSTM1
- Test details: phenotypically active (imaging signature differs from DMSO and reproducible) at any of 0.3-9 uM (binary (1 = active, 0 = inactive)); higher = active
- Details: treatment time: 24 h
Measurement type: phenotypically active
# output: bare number, no unit

Worked cases, answers included:
- Compound: "Cc1cc(C(C)Nc2ccccc2)c2nc(N3CCOCC3)cc(=O)n2c1 (stereo not drawn)"
  phenotypically active: 0
- Compound: "CC[C@]1(O)C[C@@H]2CN(CCc3c([nH]c4ccccc34)[C@@](C(=O)OC)(c3cc4c(cc3OC)N(C=O)[C@H]3[C@@](O)(C(=O)OC)[C@H](OC(C)=O)[C@]5(CC)C=CCN6CC[C@]43[C@@H]65)C2)C1 [vincristine]"
  phenotypically active: 1

// returns reported phenotypically active for input O=[N+]([O-])c1cc(Cl)ccc1S(=O)(=O)c1ccccc1 1

Then what about the compound Fc1ccc(Cl)cc1-c1nc(Nc2ccncc2)c2nccnc2n1 ? 0

Then what about the compound O=C(NOC[C@H](O)CO)c1ccc(F)c(F)c1Nc1ccc(I)cc1F ? 1

Then what about the compound COc1c2c(cc3oc(CO)cc(=O)c13)O[C@@H](C(C)(C)O)C2 [Cimifugin] ? 0

Then what about the compound CN([C@H]1c2cc(OCCCC(F)(F)F)ccc2OC(C)(C)[C@@H]1O)S(C)(=O)=O ? 0

----------
- Tested on: WPMY1-CANX-COX4
- Test details: phenotypically active (imaging signature differs from DMSO and reproducible) at any of 0.3-9 uM (binary (1 = active, 0 = inactive)); higher = active
- Details: treatment time: 24 h
Structures can show the parent of a compound that is named as a salt.
Form field: phenotypically active (one value per entry).
# output: bare number, no unit

Worked cases, answers included:
- Molecule: "Clc1ccc(C2(c3ccc(-c4cn[nH]c4)cc3)CCNCC2)cc1"
  Experimental system: "WPMY1-CANX-COX4"
  phenotypically active: 1
- Molecule: "CC(C)(C)c1cc(C(=O)/C=C/c2ccc(C(=O)O)cc2)cc(C(C)(C)C)c1"
  Experimental system: "WPMY1-CANX-COX4"
  phenotypically active: 1
- Molecule: "CC(C)[N+](C)(CCOC(=O)C1c2ccccc2Oc2ccccc21)C(C)C"
  Experimental system: "WPMY1-CANX-COX4"
  phenotypically active: 0
- Molecule: "COc1ccc(C2=N[C@H](c3ccc(Cl)cc3)[C@H](c3ccc(Cl)cc3)N2C(=O)N2CCNC(=O)C2)c(OC(C)C)c1"
  Experimental system: "WPMY1-CANX-COX4"
  phenotypically active: 0
- Molecule: "CC(CCc1ccc(O)cc1)NCCc1ccc(O)c(O)c1 (configuration not stated) [Dobutamine hydrochloride]"
  Experimental system: "WPMY1-CANX-COX4"
  phenotypically active: 0
- Molecule: "CC(=O)C1=C(O)[C@]2(C)C(=CC1=O)Oc1c(C(C)=O)c(O)c(C)c(O)c12 [(+)-Usnic acid]"
  Experimental system: "WPMY1-CANX-COX4"
  phenotypically active: 0
- Molecule: "O=C(O)[C@]1(O)C[C@H](O)[C@@H](O)[C@@H](O)C1"
  Experimental system: "WPMY1-CANX-COX4"
  phenotypically active: 0
- Molecule: "C=C1C(=O)O[C@@H]2C=C(C)CCC=C(C)CC[C@@H]12 [Costunolide]"
  Experimental system: "WPMY1-CANX-COX4"
  phenotypically active: 0

// returns reported phenotypically active for input C[C@]1(OC(=O)/C=C/c2ccccc2)C[C@@H](O)[C@]2(O)C=CO[C@@H](O[C@@H]3O[C@H](CO)[C@@H](O)[C@H](O)[C@H]3O)[C@@H]21 [Harpagoside] 0

Then what about the molecule C=C[C@H]1[C@H](O[C@@H]2O[C@H](CO)[C@@H](O)[C@H](O)[C@H]2O)OC=C2C(=O)NCC[C@H]21 ? 0

Then what about the molecule O=c1c(-c2ccc(O)cc2)coc2cc(O)cc(O)c12 ? 1

Then what about the molecule CCC(CC)(NC(=O)C(C)C)C(=O)N[C@@H](CCCNC(=N)N)C(=O)NC1(C(=O)NC(c2ccc(F)cc2)c2ccc(F)cc2)CCCC1 ? 0

Then what about the molecule CNC(=O)COC(=O)N1CCC(CCc2ccc(Cl)cc2)CC1 ? 0

Then what about the molecule COCc1nc2c([nH]1)c(=O)n(C)c(=O)n2CC(C)C ? 0

Then what about the molecule CCOC(=O)c1c(CSc2ccccc2)n(C)c2cc(Br)c(O)c(CN(C)C)c12 ? 0

Then what about the molecule Nc1ccc(-c2cccc3c(=O)cc(N4CCOCC4)oc23)cc1 ? 1

Then what about the molecule CN1CCN(c2ccc(OC(F)(F)F)c(Nc3ncc4c(n3)-c3c(c(C(N)=O)nn3CCO)CC4)c2)CC1 ? 1

----------
- System: HepG2-TP53BP1-CLTA
- Test details: phenotypically active (imaging signature differs from DMSO and reproducible) at any of 0.3-9 uM (binary (1 = active, 0 = inactive)); higher = active
- Details: treatment time: 24 h
Where a name gives a salt, the structure may show the parent alone.
Form field: phenotypically active (one value per entry).
# output: bare number, no unit

Worked cases, answers included:
- Compound: "OCCOCCN1CCN(C2=Nc3ccccc3Sc3ccccc32)CC1 [Quetiapine hemifumarate]"
  Test value: 0
- Compound: "O=c1[nH]cc(F)c(=O)[nH]1"
  Test value: 1
- Compound: "COc1ccc2cc1Oc1ccc(cc1)C[C@H]1c3cc(c(OC)cc3CCN1C)Oc1c(OC)c(OC)cc3c1[C@H](C2)N(C)CC3"
  Test value: 1

// returns reported phenotypically active for input CCCCCCCCCCCCC/C=C/[C@H](O)[C@H](N)CO [D-erythro-Sphingosine (synthetic)] 0

Then what about the compound CC1(CN2CCC(n3c(=O)[nH]c4ccccc43)CC2)OCc2ccccc2-n2cccc21 (stereo not drawn) ? 0

Then what about the compound Nc1ncnc2c1ncn2[C@H]1O[C@@H](C(=O)N2CCN(CC(=O)Nc3cccc4c3CNC4=O)CC2)[C@H](O)[C@@H]1O ? 0

Then what about the compound C[C@H](NCCc1ccc(O)cc1)[C@H](O)c1ccc(O)cc1 ? 0

Then what about the compound Cc1cc(Nc2cc(N3CCN(C)CC3)nc(Sc3ccc(NC(=O)C4CC4)cc3)n2)[nH]n1 ? 1

Then what about the compound Cc1cccc(C)c1OCC(C)N (stereo not drawn) ? 0

Then what about the compound Cc1ncc(-c2ccnc(Nc3ccc(S(C)(=O)=O)cc3)n2)n1C(C)C ? 1

Then what about the compound CCCc1nn(C)c2c(=O)[nH]c(-c3cc(S(=O)(=O)N4CCN(C)CC4)ccc3OCC)nc12 [Sildenafil citrate] ? 0

Then what about the compound C[C@@H]1O[C@@H](O[C@H]2C(=O)c3c(O)cc(O)cc3O[C@@H]2c2ccc(O)c(O)c2)[C@H](O)[C@H](O)[C@H]1O ? 0

Then what about the compound CC(=O)C1=C(O)[C@]2(C)C(=CC1=O)Oc1c(C(C)=O)c(O)c(C)c(O)c12 [(+)-Usnic acid] ? 0

Then what about the compound COc1ccc(N2C(=O)CSC2c2cccc(Br)c2)c(OC)c1 (stereo not drawn) ? 1

Then what about the compound Cc1cc2sc(NC(=O)Cc3ccccc3)nc2cc1Cl ? 0

Then what about the compound O=C(Nc1c[nH]nc1-c1nc2cc(CN3CCOCC3)ccc2[nH]1)NC1CC1 ? 1

Then what about the compound Nc1ccn([C@@H]2O[C@H](CO)[C@@H](O)[C@H]2O)c(=O)n1 ? 0

Then what about the compound O=C(CCCc1ccc(-c2ccccc2F)cc1)Nc1ccc(O)cc1 ? 1

Reference source: the supplement of paper PMC7411054
